Tested on: HCT-116 cells
Assay: HCT-116 cell proliferation assay (resazurin)
Format: cell-based
Details: Homo sapiens; Table 5; read-out: HCT-116

| MOLECULE | IC50 |
| --- | --- |
| CCCS(=O)(=O)Nc1ccc(F)c(C(=O)c2c[nH]c3ncc(-c4ccc(Cl)cc4)cc23)c1F [Vemurafenib, reference compound] | 1000 to 10000 nM |
| Cc1ccc(NC(=O)N2CC[C@@H](CC(F)(F)F)C2)cc1-c1cc(N[C@H](C)CO)nc(N2CCOCC2)c1 [Exarafenib, reference compound] | 500 to 1000 nM |
| C[C@@H](NC(=O)c1ncnc(N)c1Cl)c1ncc(C(=O)Nc2cc(C(F)(F)F)c(Cl)cn2)s1 [Tovorafenib, reference compound] | 1000 to 10000 nM |
| CC(C)(C)c1nc(-c2cccc(NS(=O)(=O)c3c(F)cccc3F)c2F)c(-c2ccnc(N)n2)s1 [Dabrafenib, reference compound] | 1000 to 10000 nM |
| Cc1ccc(NC(=O)c2ccnc(C(F)(F)F)c2)cc1-c1cc(OCCO)nc(N2CCOCC2)c1 [Naporafenib, reference compound] | 1000 to 10000 nM |

====

Entries annotated with measured IC50
Biological target: C-Raf kinase (Homo sapiens, UniProt P04049, Y340D/Y341D)
Construct: C-Raf residues 306-end; Y340D, Y341D with N-; purchased Sigma
Sequence (P04049 307-648 Y340D/Y341D): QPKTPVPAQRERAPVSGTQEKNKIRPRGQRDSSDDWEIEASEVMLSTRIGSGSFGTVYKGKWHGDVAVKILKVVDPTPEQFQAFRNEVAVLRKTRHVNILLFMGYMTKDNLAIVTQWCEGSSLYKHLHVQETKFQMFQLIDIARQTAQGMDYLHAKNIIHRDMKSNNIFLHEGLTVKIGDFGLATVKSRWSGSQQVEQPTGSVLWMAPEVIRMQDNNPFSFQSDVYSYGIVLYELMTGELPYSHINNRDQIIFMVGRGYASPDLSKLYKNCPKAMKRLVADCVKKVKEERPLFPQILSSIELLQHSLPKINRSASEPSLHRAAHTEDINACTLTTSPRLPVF
Experiment: Biochemical assay for C-Raf (coupled pyruvate kinase/lactate dehydrogenase)
Settings: Table 1, inhibition of biochemical activity; read-out: CRAF
RESULT TYPE: IC50

| SMILES | MEASURED |
| --- | --- |
| CNC(=O)c1cc(-c2cc(-c3cc(NC(=O)c4cc(C(C)(F)F)cnn4)ccc3C)cc(N[C@H](C)CO)n2)ccn1 | < 0.1 µM |
| CNC(=O)c1cc(-c2cc(-c3cc(NC(=O)c4cc(C(F)(F)F)cnn4)ccc3C)cc(NCCO)n2)ccn1 | < 0.1 µM |
| Cc1ccc(NC(=O)c2ccc(C(F)(F)F)nc2)cc1-c1ccnc(-c2ccnc(C(=O)NC3CC3)c2)c1 | 0.1 to 0.5 µM |
| CNC(=O)c1cc(-c2cc(-c3cc(NC(=O)c4cc(C(F)(F)F)cnn4)ccc3C)cc(N[C@H](C)CO)n2)ccn1 | < 0.1 µM |
| CNC(=O)c1cc(-c2cncc(-c3cc(NC(=O)c4cc(C(F)(F)F)cnn4)ccc3C)c2)ccn1 | < 0.1 µM |
| CNC(=O)c1cc(-c2cc(-c3cc(NC(=O)c4cc(C5CC5)cnn4)ccc3C)cc(OCCO)n2)ccn1 | < 0.1 µM |
| CNC(=O)c1cc(-c2cc(N[C@H](C)CO)nc(-c3cc(NC(=O)c4cc(C(F)(F)F)cnn4)ccc3C)n2)ccn1 | 0.1 to 0.5 µM |
| CNC(=O)c1cc(-c2cc(-c3cc(NC(=O)c4ccc(C(F)(F)F)nc4)ccc3C)cc(N[C@H](C)CO)n2)ccn1 | 0.1 to 0.5 µM |
| Cc1cc(-c2cc(NC(=O)c3cc(C(F)(F)F)cnn3)ccc2C)cc(-c2ccnc(C(N)=O)c2)n1 | < 0.1 µM |
| CNC(=O)c1cc(-c2cc(-c3cc(NC(=O)c4cc(C#N)cnn4)ccc3C)cc(N[C@H](C)CO)n2)ccn1 | < 0.1 µM |
| CNC(=O)c1cc(-c2cc(-c3cc(NC(=O)c4cncc(C(C)(F)F)c4)ccc3C)ccn2)ccn1 | < 0.1 µM |
| CNC(=O)c1cc(-c2cc(-c3cc(NC(=O)c4cnc(C(F)(F)F)nc4)ccc3C)ccn2)ccn1 | 1 to 10 µM |
| CNC(=O)c1cc(-c2cc(-c3cc(NC(=O)c4cc(C5CC5)cnn4)ccc3C)cc(N[C@H](C)CO)n2)ccn1 | < 0.1 µM |
| CNC(=O)c1cc(-c2cc(-c3cc(NC(=O)c4cc(C(F)(F)F)cnn4)ccc3C)cc(C)n2)ccn1 | < 0.1 µM |
